Origin of values: patent US20260055187A1

System tested: T1, ICOS extracellular domain (PD-1 family member) (UniProt Q9Y6W8 21-140, limits assumed)
T1 construct: extracellular domain; not shown: His tag
T1 sequence (looked up): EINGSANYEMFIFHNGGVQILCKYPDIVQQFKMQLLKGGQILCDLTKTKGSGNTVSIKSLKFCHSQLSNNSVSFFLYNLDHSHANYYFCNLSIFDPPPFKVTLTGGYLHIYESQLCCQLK
Experimental details: ELISA, His-tagged extracellular domain on plate
Recorded endpoint: binding result

- Binder: "PD-1 antibody 3H4 (antibody, V domains shown, detection used an anti-human IgG secondary antibody; also called Murine 3H4) VH: QIQLQQSGPELVKPGASVKISCKASGYTFTDYYINWVKQKPGQGLEWIGWIYPGSVNTKYNEKFRGKATLTVDTSSSTAYIQLSGLTSEDTAVYFCARYSNWFFDVWGAGTAVTVS VL: DIVMTQSPSSLSASLGERVSLTCRASQEISGYLSWLQQKPDGTIKRLIYAASTLDSGVPKRFSGSRSGSDYSLSISSLESEDFADYYCLQYASYPYTFGGGTKLEIKR"
  Measured result: "no binding"
- Binder: "PD-1 antibody 1-33 (antibody, V domains shown, detection used an anti-human IgG secondary antibody) VH: QVQLVQSGAEVKKPGASVRVSCKASGYTLTSYYIHWVRQAPGQGLEWMGIINPRGATISYAQKFQGRVTMTRDTSTSTVYMELRNLKSEDTALYYCATAGIYGFDFDYWGRGTLVTVSS VL: QSALTQPASVSGSPGQSITISCTGTSNDVGGYNYVSWYQHHPGKAPKLIIYDVTNRPSGVSDRFSGSKSGNTASLTISGLLAEDEGDYYCSSYTIVTNFEVLFGGGTKLTV"
  Measured result: "no binding"
- Binder: "PD-1 antibody 1-17 (antibody, V domains shown, detection used an anti-human IgG secondary antibody) VH: QVQLQESGPGVVKPSGTLSLTCAISGGSIGSGGSIRSTRWWSWVRQSPGKGLEWIGEIYHSGSTNYNPSLKSRVTISLDKSRNHFSLRLNSVTAADTAVYYCARQDYGDSGDWYFDLWGKGTMVTVSS VL: NFMLTQPHSVSESPGKTVTISCTRSSGSIASNSVQWYQQRPGSSPTTVIYEDNQRPSGVPDRFSGSIDSSSNSASLTVSGLKTEDEADYYCQSSDSSAVVFGSGTKLTVL"
  Measured result: "no binding"
